The compounds below each have a reported pKi tested on Coagulation factor X (Homo sapiens, UniProt P00742); the values come from various publications.
pKi: −log10 of the molar value.

{"compound": "CCOC(=O)OC(C)OC(=O)c1ccc2c(c1)nc(C(=O)NC1CCN(C(C)C)CC1)n2Cc1cc(-c2ccc(Cl)s2)on1 (centres unmarked)", "assayedTarget": "Coagulation factor X (Homo sapiens, UniProt P00742)", "resultModifier": "=", "pKi": 7.90}
{"compound": "COC(=O)c1ccc2nc(C(=O)NC3CCN(C(C)C)CC3)n(Cc3cc(-c4ccc(Cl)s4)on3)c2c1", "assayedTarget": "Coagulation factor X (Homo sapiens, UniProt P00742)", "resultModifier": "=", "pKi": 6.76}
{"compound": "COc1ccc(-n2nc(C(N)=O)c3c2C(=O)N(C2CCN(C4CCNC4=O)CC2)CC3)cc1 (single isomer, unassigned)", "assayedTarget": "Coagulation factor X (Homo sapiens, UniProt P00742)", "resultModifier": "≥", "pKi": 8.00}
{"compound": "N=C(N)c1ccc2[nH]c(-c3cc(CCC(=O)O)cc(Br)c3O)c(Cc3ccccc3)c2c1", "assayedTarget": "Coagulation factor X (Homo sapiens, UniProt P00742)", "resultModifier": "=", "pKi": 9.21}
{"compound": "N=C(N)c1cccc(C[C@@]2(C(=O)NCC(=O)NCc3ccc(C(=N)N)s3)CCC(=O)N2)c1", "assayedTarget": "Coagulation factor X (Homo sapiens, UniProt P00742)", "resultModifier": "<", "pKi": 5.60}
{"compound": "NC(=O)c1ccc(CN(C(=O)c2ccc(N=C(N)N)cc2)C2CCN(S(=O)(=O)/C=C/c3ccc(Cl)cc3)C2)cc1 (centres unmarked)", "assayedTarget": "Coagulation factor X (Homo sapiens, UniProt P00742)", "resultModifier": "=", "pKi": 6.52}
{"compound": "CC(C)N1CCC(NC(=O)c2cc(C(=O)N3CCNC(=O)C3)nn2Cc2cc(-c3ccc(Cl)s3)on2)CC1", "assayedTarget": "Coagulation factor X (Homo sapiens, UniProt P00742)", "resultModifier": "=", "pKi": 7.09}
{"compound": "CC1(C)C2CC3OB(C(Cc4cccc(C#N)c4)NC(=O)[C@@H]4CCCN4C(=O)[C@@H](Cc4ccccn4)NS(C)(=O)=O)OC3(C)C1C2 (some centres unmarked)", "assayedTarget": "Coagulation factor X (Homo sapiens, UniProt P00742)", "resultModifier": ">", "pKi": 6.30}
{"compound": "CC(C)N1CCC(NC(=O)c2cnc(-c3cccnc3)n2Cc2cc(-c3ccc(Cl)s3)on2)CC1", "assayedTarget": "Coagulation factor X (Homo sapiens, UniProt P00742)", "resultModifier": "=", "pKi": 6.45}
{"compound": "O=C(N[C@H](CNC(=O)c1ccc(Cl)s1)C(=O)Nc1ccc(N2CCOCC2=O)c(C(F)(F)F)c1)OCc1ccccc1", "assayedTarget": "Coagulation factor X (Homo sapiens, UniProt P00742)", "resultModifier": "=", "pKi": 7.92}
{"compound": "CC(C)N1CCC(NS(=O)(=O)C[C@H](CO)NC(=O)c2ccc(Cl)s2)CC1", "assayedTarget": "Coagulation factor X (Homo sapiens, UniProt P00742)", "resultModifier": "=", "pKi": 5.90}
